Value source: patent US7071168B2

System: bradykinin response of isolated guinea pig ileum
Test: Anti-bradykinin activity on isolated guinea pig ileum
Assay setup: isolated guinea pig ileum; pD2 of bradykinin is 7.4; higher numbers indicate higher potency
Please go through the items and note down their GPI: pA2 for bradykinin antagonist activity on isolated guinea pig ileum.

Known results for compounds:
CC1(C)CC(NC(=O)[C@H](Cc2csc3ccccc23)NC(=O)CCCCCCCCCCC(=O)N[C@@H](Cc2csc3ccccc23)C(=O)NC2CC(C)(C)NC(C)(C)C2)CC(C)(C)N1 ... 5.3
O=C(O)Cc1ccc(NC(=O)C(NC(=NC2CCCCC2)NC2CCCCC2)C2Cc3ccccc3C2)cc1 (stereo not drawn) ... 4.7
CN(C)c1cccc2c(S(=O)(=O)NC(Cc3ccc(OCc4c(Cl)cccc4Cl)cc3)C(=O)N(C)C3CC(C)(C)NC(C)(C)C3)cccc12 (stereo not drawn) ... 5.1
CN(C)c1ccc(C=CC(=O)NC(Cc2ccc(OCc3c(Cl)cccc3Cl)cc2)C(=O)N(C)C2CC(C)(C)NC(C)(C)C2)cc1.O=C(O)C(F)(F)F (stereo not drawn) [M630, Dmac-OC2Y-Matp.TFA] ... 5.0
O=C(O)CC(NC(=O)C(Cc1ccc2ccccc2c1)NC(=NC1CCCCC1)NC1CCCCC1)C(=O)NC1CN2CCC1CC2 (single isomer, unassigned) [M336-1] ... 5.1

Attention now shifts to the item below.
Item O=C(NC1CN2CCC1CC2)C(Cc1ccc2ccccc2c1)NC(=NC1CCCCC1)NC1CCCCC1 (stereo not drawn) has what recorded GPI: pA2 for bradykinin antagonist activity on isolated guinea pig ileum?
6.6
